TARGET OR SYSTEM: HDAC6 enzyme (Homo sapiens, UniProt Q9UBN7)
Construct: transducing full length HDAC1 and HDAC6 genes into Sf-9 insect cells; GST; purchased SignalChem; host or cells: Sf-9 insect cells
Sequence (Q9UBN7 whole entry): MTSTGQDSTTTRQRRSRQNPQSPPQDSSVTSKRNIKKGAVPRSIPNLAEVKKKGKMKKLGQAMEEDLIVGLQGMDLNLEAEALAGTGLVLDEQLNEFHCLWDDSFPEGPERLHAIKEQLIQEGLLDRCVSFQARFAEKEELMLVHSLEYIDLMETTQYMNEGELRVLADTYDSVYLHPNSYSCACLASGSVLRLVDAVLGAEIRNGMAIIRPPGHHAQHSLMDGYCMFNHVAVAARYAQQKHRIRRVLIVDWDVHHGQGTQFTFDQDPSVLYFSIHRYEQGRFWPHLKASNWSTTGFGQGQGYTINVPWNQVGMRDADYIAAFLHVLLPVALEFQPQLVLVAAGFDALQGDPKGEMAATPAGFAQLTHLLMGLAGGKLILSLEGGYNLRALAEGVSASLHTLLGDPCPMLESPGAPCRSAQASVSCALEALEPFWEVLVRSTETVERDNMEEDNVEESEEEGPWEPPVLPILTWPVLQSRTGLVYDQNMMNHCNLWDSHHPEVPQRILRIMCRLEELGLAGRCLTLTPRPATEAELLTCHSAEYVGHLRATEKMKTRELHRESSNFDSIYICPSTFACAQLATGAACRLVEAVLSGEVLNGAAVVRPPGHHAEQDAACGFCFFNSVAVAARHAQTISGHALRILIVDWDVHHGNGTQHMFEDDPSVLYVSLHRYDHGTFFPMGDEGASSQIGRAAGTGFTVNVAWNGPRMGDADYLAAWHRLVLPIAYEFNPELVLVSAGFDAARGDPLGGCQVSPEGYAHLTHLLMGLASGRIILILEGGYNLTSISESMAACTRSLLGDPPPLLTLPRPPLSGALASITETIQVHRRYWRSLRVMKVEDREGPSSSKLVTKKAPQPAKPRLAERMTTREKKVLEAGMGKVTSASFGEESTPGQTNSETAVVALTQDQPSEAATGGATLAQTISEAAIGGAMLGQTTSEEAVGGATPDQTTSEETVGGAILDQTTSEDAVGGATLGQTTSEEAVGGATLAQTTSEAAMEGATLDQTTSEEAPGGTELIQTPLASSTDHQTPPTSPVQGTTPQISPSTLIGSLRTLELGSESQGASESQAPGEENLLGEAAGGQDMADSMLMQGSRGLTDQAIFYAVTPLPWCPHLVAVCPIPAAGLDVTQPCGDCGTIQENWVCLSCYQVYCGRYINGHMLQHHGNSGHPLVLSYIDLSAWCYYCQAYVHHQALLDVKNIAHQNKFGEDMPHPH
EXPERIMENTAL PROTOCOL: HDAC1/6 Enzyme Inhibitory Assay (HDAC-Glo I/II Assay kit), HDAC6
Type: biochemical
DETAILS: 1 μM test compound; wells without enzyme = 100% inhibition; read-out: HDAC6 inhibitory rate (%) (1 μM)
What inhibition at 1 µM was measured for each of the following?
Kindly answer with a numeric value in %, unit omitted.

Item under review: O=C(N[C@@H]1CCCC[C@H]1N1Cc2ccc(-c3noc(C(F)(F)F)n3)cc2C1=O)C1COC1 . Reported inhibition at 1 µM?
99

Item under review: O=C1NCC(C(=O)N[C@@H]2CCCC[C@H]2N2Cc3ccc(-c4noc(C(F)(F)F)n4)cc3C2=O)N1 (stereo partly drawn) . Reported inhibition at 1 µM?
71

Item under review: O=C(N[C@@H]1CCCC[C@H]1N1Cc2ccc(-c3noc(C(F)(F)F)n3)cc2C1=O)N1CCC1 . Reported inhibition at 1 µM?
98

Item under review: O=C1c2cc(-c3noc(C(F)(F)F)n3)ccc2CN1[C@@H]1CCCC[C@H]1NS(=O)(=O)C1CC1 . Reported inhibition at 1 µM?
98

Item under review: CN(C(=O)N[C@@H]1CCCC[C@H]1N1Cc2ccc(-c3noc(C(F)(F)F)n3)cc2C1=O)C1CC1 . Reported inhibition at 1 µM?
100

Item under review: C[C@H](c1ccccc1)N1CC[C@@H]2CC[C@@H](N3Cc4ccc(-c5noc(C(F)(F)F)n5)cc4C3=O)[C@@H]21 . Reported inhibition at 1 µM?
98

Item under review: CC(C)(C)OC(=O)N1CC(C)(C(=O)N[C@@H]2CCCC[C@H]2N2Cc3ccc(-c4noc(C(F)(F)F)n4)cc3C2=O)C1 . Reported inhibition at 1 µM?
100

Item under review: O=C1CCCN1c1ccccc1N1Cc2ccc(-c3noc(C(F)(F)F)n3)cc2C1=O . Reported inhibition at 1 µM?
98

Item under review: CC(=O)N1CCCC(N2Cc3ncc(-c4noc(C(F)(F)F)n4)cc3C2=O)C1 (stereo not drawn) . Reported inhibition at 1 µM?
91

Item under review: O=C(CC1(O)CCCC1)N[C@@H]1CCCC[C@H]1N1Cc2ccc(-c3noc(C(F)(F)F)n3)cc2C1=O . Reported inhibition at 1 µM?
99

Item under review: CC1(C(=O)N[C@@H]2CCCC[C@H]2N2Cc3ccc(-c4noc(C(F)(F)F)n4)cc3C2=O)CC1 . Reported inhibition at 1 µM?
98

Item under review: O=C1c2cc(-c3noc(C(F)(F)F)n3)ccc2CN1[C@H]1CCc2ccccc21 . Reported inhibition at 1 µM?
95

Item under review: O=C1CCC2(CCC(N3Cc4ccc(-c5noc(C(F)(F)F)n5)cc4C3=O)CC2)N1 (stereo not drawn) . Reported inhibition at 1 µM?
93

Item under review: O=C(N[C@@H]1CCCC[C@H]1N1Cc2ccc(-c3noc(C(F)(F)F)n3)cc2C1=O)[C@@H]1CCCO1 . Reported inhibition at 1 µM?
97

Item under review: O=C1CCCN1[C@@H]1CCCC[C@H]1N1Cc2ncc(-c3noc(C(F)(F)F)n3)cc2C1=O . Reported inhibition at 1 µM?
97

Item under review: Cc1ccc([C@@H]2CNCC[C@H]2N2Cc3ccc(-c4noc(C(F)(F)F)n4)cc3C2=O)cc1F (relative stereo) . Reported inhibition at 1 µM?
99

Item under review: O=C1CC[C@@H](C(=O)N[C@@H]2CCCC[C@H]2N2Cc3ccc(-c4noc(C(F)(F)F)n4)cc3C2=O)N1 . Reported inhibition at 1 µM?
92

Item under review: CC(C)(C)OC(=O)N1CC[C@@H](N2Cc3ccc(-c4noc(C(F)(F)F)n4)cc3C2=O)[C@H](c2ccccc2)C1 . Reported inhibition at 1 µM?
101

Item under review: O=C1c2cc(-c3noc(C(F)(F)F)n3)ccc2CN1C1CCNC[C@@H]1c1ccc(Cl)cc1 (stereo in doubt) . Reported inhibition at 1 µM?
98

Item under review: N#Cc1ccccc1C(=O)N[C@@H]1CCCC[C@H]1N1Cc2ccc(-c3noc(C(F)(F)F)n3)cc2C1=O . Reported inhibition at 1 µM?
101

Item under review: CC(C)(O)CC(=O)N[C@@H]1CCCC[C@H]1N1Cc2ccc(-c3noc(C(F)(F)F)n3)cc2C1=O . Reported inhibition at 1 µM?
101
